# Tgt: Carnitine O-palmitoyltransferase 1, liver isoform (Homo sapiens, UniProt P50416)
# Sequence (P50416 whole entry): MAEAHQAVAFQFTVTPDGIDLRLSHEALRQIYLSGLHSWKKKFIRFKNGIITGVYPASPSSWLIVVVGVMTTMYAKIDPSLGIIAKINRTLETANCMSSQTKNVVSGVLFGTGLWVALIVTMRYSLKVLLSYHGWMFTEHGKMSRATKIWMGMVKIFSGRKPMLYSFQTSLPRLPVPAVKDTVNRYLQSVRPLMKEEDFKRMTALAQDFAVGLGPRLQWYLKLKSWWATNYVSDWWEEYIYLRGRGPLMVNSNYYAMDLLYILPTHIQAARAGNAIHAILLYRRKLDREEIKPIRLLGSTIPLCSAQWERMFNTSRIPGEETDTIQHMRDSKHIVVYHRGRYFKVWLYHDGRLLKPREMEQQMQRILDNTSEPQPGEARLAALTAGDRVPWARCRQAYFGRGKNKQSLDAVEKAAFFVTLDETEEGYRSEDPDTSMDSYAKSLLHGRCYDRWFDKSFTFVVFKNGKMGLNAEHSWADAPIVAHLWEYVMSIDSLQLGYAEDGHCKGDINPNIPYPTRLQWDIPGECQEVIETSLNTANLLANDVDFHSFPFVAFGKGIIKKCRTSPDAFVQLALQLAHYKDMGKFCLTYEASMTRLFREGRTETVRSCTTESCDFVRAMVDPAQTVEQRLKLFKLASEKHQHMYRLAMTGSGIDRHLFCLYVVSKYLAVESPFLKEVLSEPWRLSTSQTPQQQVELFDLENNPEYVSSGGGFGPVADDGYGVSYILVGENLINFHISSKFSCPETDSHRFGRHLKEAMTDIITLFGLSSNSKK
# Procedure details: SUPPLEMENTARY: Inhibition of Carnitine palmitoyltransferase 1, liver isoform
Measured endpoint: IC50 (nM)

Examples with their reported IC50 follow.
• O=C(COc1ccccc1)OCc1cc(-c2nc([C@H]3CCCCN3C(=O)COc3ccccc3)cs2)ccn1 = 503
• NC(=O)c1cncc(-c2noc([C@H]3CCCCN3C(=O)COc3ccccc3)n2)c1 = 113
• COc1ccc(Cl)cc1S(=O)(=O)N1CCOc2ccc(C(=O)Nc3ccc(C(=O)O)c(F)c3)cc21 = 65.1
• COc1ccc(Cl)cc1CN1C(=O)OC(C)(C)c2ccc(C(=O)Nc3nccs3)cc21 = 278

[I] CCOC(=O)C1CN(S(=O)(=O)c2cc(Cl)ccc2OC)c2cc(C(=O)Nc3cccc(F)c3)ccc2O1 (stereo not drawn)
[II] COc1ccc(Cl)cc1S(=O)(=O)N1CCOc2c(C)cc(C(=O)Nc3ccc(C(=O)O)cc3)cc21
Query: Short answer wanted: higher IC50, I or II ? Identify your selection by its label.
Result: I

[P] CC(=O)Nc1cccc(C#C[C@H]2CCCCN2C(=O)COc2ccccc2)c1
[Q] CCN(c1cc(C(=O)Nc2ccc(CC(=O)O)cc2)cc2c1OCO2)S(=O)(=O)c1cc(Cl)ccc1OC
Query: When the recorded IC50 values are compared, which is smaller: that of P or that of Q ? Please reply using the label of the selected record.
Result: P
